system-tested: serotonin subclass receptors
protocol-summary: PDSP binding, serotonin subclass receptors
measurement-parameters: read-out: Ki for all of the serotonin subclass receptors
observation-type: Ki

- COc1ccccc1N1CCC2(CCN(CCCSc3nnc(-c4ccccc4)n3C)CC2)CC1 [Compound 1]: > 1000 nM

###

system-tested: D3R (Homo sapiens, UniProt P35462)
Sequence (P35462 whole entry): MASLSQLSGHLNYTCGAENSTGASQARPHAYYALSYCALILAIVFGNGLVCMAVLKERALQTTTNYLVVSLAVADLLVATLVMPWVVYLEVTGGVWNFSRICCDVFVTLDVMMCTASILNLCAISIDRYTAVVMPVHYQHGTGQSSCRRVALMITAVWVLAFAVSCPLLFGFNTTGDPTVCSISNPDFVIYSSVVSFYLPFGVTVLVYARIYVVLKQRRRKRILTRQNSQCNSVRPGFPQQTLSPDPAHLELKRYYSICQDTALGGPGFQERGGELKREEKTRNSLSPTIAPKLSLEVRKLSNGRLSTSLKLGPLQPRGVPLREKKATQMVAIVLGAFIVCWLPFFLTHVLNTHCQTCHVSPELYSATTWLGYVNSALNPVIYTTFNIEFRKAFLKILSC
protocol-summary: Radioligand binding, [125I]IABN, HEK cells expressing human D3
measurement-parameters: (Ki for D2 receptors)/(Ki for D3 receptors)
Entries and their measured D2/D3 ratio follow.
observation-type: D2/D3 ratio

* COc1ccccc1N1CCC2(CCN(CCSc3nnc(-c4ccccc4)n3C)CC2)CC1 | 100
* COc1ccccc1N1CCC2(CCNCC2)CC1 | >2.5
* CCCCN1CCC2(CC1)CCN(c1ccccc1OC)CC2 | >9.6
* CCCSc1nnc(-c2ccccc2)n1C | >3.6
* COc1ccccc1N1CCC2(CCN(CCCSc3nnc(-c4ccccc4)[nH]3)CC2)CC1 | 35
* CCCCN1CCC2(CCN(c3ccccc3OC)C2)C1 (stereo not drawn) | >1.1
